EC50 by entry:
System: Influenza A virus
procedure-details: Antiviral activity against oseltamivir-resistant Influenza A virus A/Hong Kong/2369/09/H275Y(H1N1) infected in MDCK cells assessed as protection against virus-induced cytopathic effect after 48 to 72 hrs by CellTiter 96 aqueous assay
Assay type: functional, organism-based
The reply should contain only the number, in µM.

# compound, unit-abbrev, result-value
measured = [
    ("CCOP(=O)(O)C1=C[C@@H](OC(CC)CC)[C@H](NC(C)=O)[C@@H](N)C1 [TAMIPHOSPHOR MONOETHYL ESTER]", "µM", 0.44),
]

Tell me the measured EC50 of CCC(CC)O[C@@H]1C=C(P(=O)(O)O)C[C@H](N)[C@H]1NC(C)=O [TAMIPHOSPHOR] , please.
6.55

Entry to check: CCC(CC)O[C@@H]1C=C(P(=O)(O)O)C[C@H](NC(=N)N)[C@H]1NC(C)=O
4.6
